target: Genome polyprotein (Hepatitis C virus genotype 1a (isolate 1) (HCV), UniProt P26664); test: Inhibition to hepatitis C virus (HCV) NS3/NS4A serine protease
Sequence (P26664 1027-1657 limits assumed): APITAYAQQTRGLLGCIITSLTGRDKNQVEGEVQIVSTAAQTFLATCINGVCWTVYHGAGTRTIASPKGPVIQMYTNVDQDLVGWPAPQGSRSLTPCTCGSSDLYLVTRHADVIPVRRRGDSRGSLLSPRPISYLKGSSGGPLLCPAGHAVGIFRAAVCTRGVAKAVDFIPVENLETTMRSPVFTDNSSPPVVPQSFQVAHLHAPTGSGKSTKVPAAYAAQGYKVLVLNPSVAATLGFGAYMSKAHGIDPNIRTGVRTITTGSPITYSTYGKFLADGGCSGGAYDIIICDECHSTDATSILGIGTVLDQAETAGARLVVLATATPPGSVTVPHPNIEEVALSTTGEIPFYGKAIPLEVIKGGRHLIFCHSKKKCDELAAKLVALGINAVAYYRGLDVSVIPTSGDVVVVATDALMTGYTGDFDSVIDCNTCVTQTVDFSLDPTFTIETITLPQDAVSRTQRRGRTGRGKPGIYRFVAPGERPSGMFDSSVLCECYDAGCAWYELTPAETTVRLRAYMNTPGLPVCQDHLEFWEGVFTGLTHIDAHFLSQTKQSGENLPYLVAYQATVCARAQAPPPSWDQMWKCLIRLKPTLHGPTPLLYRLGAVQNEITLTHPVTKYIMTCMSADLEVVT
Sequence (P26664 1658-1711 limits assumed): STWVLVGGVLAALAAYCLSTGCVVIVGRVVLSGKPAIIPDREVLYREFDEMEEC
experimentalEndpoint: IC50 (nM)

Here are 3 molecules together with their reported answers.
[
  {
    "molecule": "CC[C@H](C)[C@H](NC(=O)OCc1ccccc1)C(=O)N[C@@H](C)C(=O)N[C@@H](CC(F)F)C(=O)C(=O)O",
    "experimentalEndpoint": "IC50",
    "endpointUnit": "nM",
    "valueReported": 15600
  },
  {
    "molecule": "CC(C)C[C@H](NC(=O)[C@@H](NC(=O)OC(C)(C)C)C(C)C)C(=O)N[C@@H](CC(F)F)C(=O)C(=O)O",
    "experimentalEndpoint": "IC50",
    "endpointUnit": "nM",
    "valueReported": 460
  },
  {
    "molecule": "CC(C)C[C@H](NC(=O)[C@H](CC(=O)O)NC(=O)OC(C)(C)C)C(=O)N[C@@H](CC(F)F)C(=O)C(=O)O",
    "experimentalEndpoint": "IC50",
    "endpointUnit": "nM",
    "valueReported": 1630
  }
]

[A] CC(C)C[C@H](NC(=O)[C@H](CCC(N)=O)NC(=O)OC(C)(C)C)C(=O)N[C@@H](CC(F)F)C(=O)C(=O)O
[B] CCC(C)[C@H](NC(=O)OCc1ccccc1)C(=O)N[C@H](C(=O)N[C@@H](CC(F)F)C(=O)C(=O)O)C(C)C (some centres not stated)
[C] CC(C)C[C@H](NC(=O)[C@H](CCC(=O)O)NC(=O)OC(C)(C)C)C(=O)N[C@@H](CC(F)F)C(=O)C(=O)O
Hello, I need these entries ordered by IC50, highest reading first. Thanks! API: response body holds the labels in the requested order.
B, A, C
(B: 16000 nM, A: 2100 nM, C: 330 nM)

---

biological target: Genome polyprotein (Hepatitis C virus genotype 1a (isolate 1) (HCV)); experiment: Inhibition to hepatitis C virus (HCV) NS3/NS4A serine protease
pIC50: −log10 of the molar value.
experimentalEndpoint: pIC50

Take a look at these entries with their results.
[
  {
    "compound": "CC(C)C[C@H](NC(=O)[C@H](C)NC(=O)OC(C)(C)C)C(=O)N[C@@H](CC(F)F)C(=O)C(=O)O",
    "pIC50": 5.05
  },
  {
    "compound": "CC[C@H](C)[C@H](NC(C)=O)C(=O)N[C@@H](CC(C)C)C(=O)N[C@@H](CC(F)F)C(=O)C(=O)O",
    "pIC50": 4.80
  },
  {
    "compound": "CC(C)C[C@H](NC(=O)[C@@H](NC(=O)OC(C)(C)C)C1CCCC1)C(=O)N[C@@H](CC(F)F)C(=O)C(=O)O",
    "pIC50": 6.42
  },
  {
    "compound": "CC[C@H](C)[C@H](NC(=O)OCc1ccccc1)C(=O)N[C@@H](CC(C)C)C(=O)N[C@@H](CC(F)F)C(=O)C(=O)O",
    "pIC50": 5.77
  },
  {
    "compound": "CC(=O)N[C@H](C(=O)[C@H](CCC(=O)O)N[C@@H](CC1CCCCC1)C(=O)N[C@@H](CC(F)F)C(=O)C(=O)O)C(c1ccccc1)c1ccccc1",
    "pIC50": 5.28
  }
]

[a] CC[C@H](C)[C@H](NC(=O)OC(C)(C)C)C(=O)N[C@@H](CC(C)C)C(=O)N[C@@H](CC(F)F)C(=O)C(=O)O
[b] CC[C@H](NC(=O)[C@@H](NC(=O)OCc1ccccc1)[C@@H](C)CC)C(=O)N[C@@H](CC(F)F)C(=O)C(=O)O
Of a and b , which shows the smaller pIC50 value? # reply format: chosen label
b
(b: 5.48, a: 6.00)
